- System: HL-60(TB) leukemia
- procedure summary: NCI-60 one-dose screen, 48 h
- assay setup: 10 µM unless noted
This is part of a sample that, as a whole, favours compounds with a hit. Of some 83,000 tested, about 20% had one in any assay. Activity calls are given as the source filed them. The calls were made as follows: active = growth percent below 10; inactive = the rest.
Labels: active, inactive

{"compound structure string": "O=S(=O)(NCCNc1nccc(-c2c(-c3ccc(F)c(O)c3)nc3sccn23)n1)c1ccc(O)cc1", "cat": "inactive"}
{"compound structure string": "N#Cc1c(-c2ccc(Cl)cc2)nc(NN=Cc2ccc[nH]2)nc1N1CCOCC1", "cat": "active"}
{"compound structure string": "c1ccc(-c2cc3n4c(-c5ccccc5)nn(-c5ccccc5)c4cnc-3n2)cc1", "cat": "inactive"}
{"compound structure string": "COc1ccc(C(=O)Cn2cnc3c(Nc4cc(C(=O)Nc5ccc(N6CCN(CCO)CC6)cc5)ccc4C)ncnc32)cc1", "cat": "inactive"}
{"compound structure string": "COC(=O)c1cc2cc(-c3ccc(OC)cc3)cnc2[nH]1", "cat": "active"}
{"compound structure string": "CC(=O)Nc1c(C)cc(C)cc1C", "cat": "inactive"}
{"compound structure string": "CCCO/N=C/c1ccccn1", "cat": "inactive"}
{"compound structure string": "COc1cc(/C=C/C(=O)c2ccc(Nc3nc(NCCO)nc(N4CCOCC4)n3)cc2)cc(OC)c1OC", "cat": "active"}
{"compound structure string": "Cn1ccnc1C(=O)/C=C/c1ccc(C(=O)Nc2ccc(Cl)cc2)cc1", "cat": "active"}
{"compound structure string": "CSc1ccc(N2C(=N)C(=S)N(c3ccc(C)cc3)C2=O)cc1", "cat": "inactive"}

* * *

- Tested on: HL-60(TB) leukemia
- procedure summary: NCI-60 one-dose screen, 48 h
- assay setup: 10 µM unless noted
This is part of a sample that, as a whole, favours compounds with a hit. Of some 83,000 tested, about 20% had one in any assay. Active and inactive are the calls of the source. Rule for the calls: active = growth percent below 10; inactive = the rest.
Labels: TRUE = active, FALSE = inactive

{"compound": "COc1cc(/C=C/c2cc(/C=C/c3ccc(O)c(OC)c3)n(C(=O)c3ccc(Cl)cc3)n2)ccc1O", "cat": "TRUE"}
{"compound": "Cc1nn(-c2ccccc2)cc1/C=C1\\SC(N2CCCCC2)=NC1=O", "cat": "FALSE"}
{"compound": "O=C1/C(=C/c2ccc(Cl)cc2)CCC/C1=C\\c1ccc(Cl)cc1", "cat": "FALSE"}
{"compound": "O=c1[nH]c(=S)c2c(n1CCCO)CCC2", "cat": "FALSE"}
{"compound": "Cc1nc2sc(C(=O)Nc3ccc(Br)cc3)c(N)c2cc1C(O)c1ccccc1 (stereo unspecified)", "cat": "FALSE"}
{"compound": "COc1cc(Nc2nc(NCCN)nc3cc[nH]c(=O)c23)cc(OC)c1", "cat": "FALSE"}
{"compound": "COc1cc2oc(-c3cccc(C(=O)Nc4ccc(C)cc4)c3)cc(=O)c2c(OC)c1OC", "cat": "TRUE"}
{"compound": "CCN(CC)CCS(=O)(=O)CCNc1ccnc2cc(Cl)ccc12", "cat": "TRUE"}
{"compound": "FC(F)(F)c1cn(CCN2CCOCC2)c2ncnc(Cl)c12", "cat": "TRUE"}
{"compound": "O=C1CC(c2ccc(Cl)cc2)c2ncn(-c3cccc(Cl)c3)c2N1 (stereo unspecified)", "cat": "TRUE"}
{"compound": "CN(C)c1ccc(/C=N/NC(=O)c2ccccc2Nc2cccc(C(F)(F)F)c2)cc1", "cat": "FALSE"}
{"compound": "O=C(O)c1cn(C2CC2)c2cc(N3CCN(Cc4cc(Cl)ccc4O)CC3)c(F)cc2c1=O", "cat": "FALSE"}
{"compound": "COC(=O)N[C@@H](C)CNc1nccc(-c2cn(C(C)C)nc2-c2cc(Cl)cc(NS(C)(=O)=O)c2F)n1", "cat": "FALSE"}
{"compound": "N#C/C(=C\\c1ccc(-c2cc(C(F)(F)F)ccc2Cl)o1)c1nc(-c2ccco2)cs1", "cat": "FALSE"}
{"compound": "Cc1[nH]n(-c2ccccc2)c2nc3nncc3c(-c3ccc(Cl)cc3)c12", "cat": "FALSE"}
{"compound": "O=S(=O)(NCCNc1nccc(-c2c(-c3cccc(O)c3)nc3occn23)n1)c1ccc(Cl)cc1", "cat": "FALSE"}
{"compound": "C=C1C(=O)O[C@H]2[C@H]1CC/C(CNC(=O)c1cccc3ccccc13)=C\\CC[C@@]1(C)O[C@@H]21", "cat": "TRUE"}
{"compound": "S=C=Nc1ccc2ccccc2c1", "cat": "FALSE"}
{"compound": "O=C1c2c(O)cc(O)cc2-c2c(-c3ccc(O)cc3)oc3cc(O)cc1c23", "cat": "FALSE"}
{"compound": "C/C(=N\\NC(=S)Nc1ccccc1)c1ccccn1", "cat": "TRUE"}
{"compound": "Cc1cc(NCCCN(C)C)c2ccc3c(ccc4c(NCCCN(C)C)cc(C)nc43)c2n1", "cat": "TRUE"}
